The following molecules are shown together with reported pIC50 values.
- experimentalTarget: CDK4/cyclinD3 (Homo sapiens)
- Sequence (P11802 whole entry): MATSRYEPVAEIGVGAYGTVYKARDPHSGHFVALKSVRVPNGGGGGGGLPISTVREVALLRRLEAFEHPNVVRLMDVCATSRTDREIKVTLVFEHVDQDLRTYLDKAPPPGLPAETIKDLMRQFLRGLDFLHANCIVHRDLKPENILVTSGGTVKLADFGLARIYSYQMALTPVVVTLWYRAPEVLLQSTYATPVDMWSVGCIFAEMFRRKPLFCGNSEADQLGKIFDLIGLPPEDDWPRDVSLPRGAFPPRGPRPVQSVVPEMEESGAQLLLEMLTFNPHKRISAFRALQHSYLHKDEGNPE
- Sequence (P30281 whole entry partner): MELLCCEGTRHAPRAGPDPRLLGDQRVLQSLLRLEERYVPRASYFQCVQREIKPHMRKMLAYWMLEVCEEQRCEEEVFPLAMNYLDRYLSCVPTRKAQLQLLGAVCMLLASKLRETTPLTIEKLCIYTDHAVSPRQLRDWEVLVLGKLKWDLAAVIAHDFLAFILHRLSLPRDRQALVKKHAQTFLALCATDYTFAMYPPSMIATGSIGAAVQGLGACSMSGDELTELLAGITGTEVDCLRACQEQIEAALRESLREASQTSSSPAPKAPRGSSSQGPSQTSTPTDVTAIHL
- assaySummary: Cyclin-dependent kinase activity assay (continuous ATP coupling assay), CDK4/cyclinD3
- measurementContext: CDK4/cyclinD3 60 nM, ATP 500 μM, Rb copeptide 500 μM, 15 min preincubation, pH 7.5, 1% DMSO
pIC50: −log10 of the molar value.

Past entries and their recorded results:
>  <molecule>
CNS(=O)(=O)c1ccc(Nc2ncc(C(F)(F)F)c(-n3cc(C(F)(F)F)cn3)n2)cc1

>  <testValue>
≤ 7.00

$$$$
>  <molecule>
CNS(=O)(=O)c1ccc(Nc2ncc(C(F)(F)F)c(-n3cc([C@H]4C[C@@](C)(O)C4)cn3)n2)cc1 (single isomer, unassigned)

>  <testValue>
7.00 to 8.00

$$$$
>  <molecule>
CNS(=O)(=O)c1ccc(Nc2ncc(C(F)(F)F)c(-n3cc([C@H]4CCC[C@H]4O)cn3)n2)cc1 (single isomer, unassigned)

>  <testValue>
7.00 to 8.00

$$$$

Input: Tell me its pIC50 given CNS(=O)(=O)c1ccc(Nc2ncc(C(F)(F)F)c(-n3cc([C@@H]4CC[C@@H](O)C4)cn3)n2)cc1 (single isomer, unassigned) as the entry.
Output: 7.00 to 8.00

Input: Tell me its pIC50 given "O=S(=O)(NCCCO)c1ccc(Nc2ncc(C(F)(F)F)c(-n3cccn3)n2)cc1" as the entry.
Output: ≤ 7.00

Input: Tell me its pIC50 given "CNS(=O)(=O)c1ccc(Nc2ncc(C(F)(F)F)c(-n3cc(CC(C)(C)N)cn3)n2)cc1" as the entry.
Output: 7.00 to 8.00

Source of measurements: patent US20260308145A1
